Below are IC50 measurements against Apoptosis regulator Bcl-2 (Homo sapiens) drawn from the literature.

CN(C)CC[C@H](CSc1ccccc1)Nc1ccc(S(=O)(=O)Nc2ncnc3c2CCN(C2CCN(Cc4cc(F)ccc4-c4ccc(Cl)cc4)CC2)C3)cc1S(=O)(=O)C(F)(F)F
22 nM
CC1(O)CC[C@H](CN2CCN(c3ccc(C(=O)NS(=O)(=O)c4ccc(NCC5CCOCC5)c([N+](=O)[O-])c4)c(Oc4cnc5[nH]ccc5c4)c3)CC2)[C@@H](c2ccc(Cl)cc2)C1 (some centres unmarked)
< 5 nM
CCCCN(CCCC)C(=O)c1nn(-c2ccc(C(=O)NS(=O)(=O)c3ccc4ccccc4c3)cc2C(=O)N2Cc3ccccc3C[C@H]2CN)c(C)c1Cl
8.41 nM

Then there is this molecule:
Value of IC50 reported for the molecule CCCCN(CCCC)C(=O)c1cc(C)n(-c2ccc(NC(=O)c3cccn(Cc4ccccc4)c3=O)cc2C(=O)N2Cc3ccccc3C[C@H]2CO)n1 is 731 to 786 nM
